- ASSAY NOTES: in vivo
- EXPERIMENTAL SETUP: FVB, mouse, plasma, iv, 10 mg/kg
TEST READOUT: AUC(0-t) (ng·h/mL)
Report the value in ng·h/mL with no unit label.

Request: I have this molecule here, CC[N+](CC)(CC)CC [TETRYLAMMONIUM] , and I need its recorded AUC(0-t).
Response: 2410

---

- ASSAY NOTES: Drug recovery in Oct1/Oct2-knockout FVB mouse urine assessed as corrected compound recovery by measuring nominal to observerd glomerular filtration rate ratio at 10 mg/kg, iv
TEST READOUT: dose excreted

Request: I have this compound here, CC[N+](CC)(CC)CC [TETRYLAMMONIUM] , and I need its recorded dose excreted.
Response: 62%

---

- ASSAY NOTES: in vivo
- EXPERIMENTAL SETUP: FVB, mouse, iv, 10 mg/kg
TEST READOUT: half-life
Write the numeric value and append its unit.

Request: I have this compound here, CC[N+](CC)(CC)CC , and I need its recorded half-life.
Response: 12 min

---

- ASSAY NOTES: Initial plasma concentration in Oct1/Oct2-knockout FVB mouse at 10 mg/kg, iv
TEST READOUT: C0 (µg/mL)
Report the value in µg/mL with no unit label.

Request: I have this compound here, CC[N+](CC)(CC)CC , and I need its recorded C0.
Response: 67.4

---

- ASSAY NOTES: Drug excretion in wild type FVB mouse urine at 10 mg/kg, iv after 2 hrs
TEST READOUT: dose excreted at 2 h (%)
Report the value in % with no unit label.

Request: I have this compound here, CC[N+](CC)(CC)CC [TETRYLAMMONIUM] , and I need its recorded dose excreted at 2 h.
Response: 35

---

- Tested on: OCT2 over OCT1
- ASSAY NOTES: Selectivity for OCT2 (unknown origin) over OCT1 (unknown origin)
- Assay type: ADME
- EXPERIMENTAL SETUP: human
Listed below: selectivity ratio values for each entry.

Request: I have this compound here, CC(N)Cc1ccccc1 (configuration not stated) , and I need its recorded selectivity ratio.
Response: 20

Request: I have this compound here, NC12CC3CC(CC(C3)C1)C2 , and I need its recorded selectivity ratio.
Response: 20

---

- ASSAY NOTES: Volume of distribution at steady state in Oct1/Oct2-knockout FVB mouse at 10 mg/kg, iv
- EXPERIMENTAL SETUP: in vivo
TEST READOUT: Vd
Write the numeric value and append its unit.

Request: I have this compound here, CC[N+](CC)(CC)CC [TETRYLAMMONIUM] , and I need its recorded Vd.
Response: 0.318 L/kg

---

- ASSAY NOTES: in vivo
- EXPERIMENTAL SETUP: FVB, mouse, plasma, iv, 10 mg/kg
TEST READOUT: AUC(0-inf) (ng·h/mL)
Report the value in ng·h/mL with no unit label.

Request: I have this compound here, CC[N+](CC)(CC)CC [TETRYLAMMONIUM] , and I need its recorded AUC(0-inf).
Response: 9840

---

- ASSAY NOTES: Clearance in Oct1/Oct2-knockout FVB mouse at 10 mg/kg, iv
- EXPERIMENTAL SETUP: in vivo
TEST READOUT: clearance (mL/min/kg)
Report the value in mL/min/kg with no unit label.

Request: I have this compound here, CC[N+](CC)(CC)CC , and I need its recorded clearance.
Response: 16.9
